procedure_details: Evaluation of total body clearance (CLtot), intravenous administration
Format: in vivo, Sprague-Dawley (SD)
measurement_conditions: rat (SD), intravenous administration 0.5-10 mg/kg; CLtot = dose/AUC
Classify by measured rat_CLt: met if it is equal to or exceeds 4 mL/min/kg, not met if it is smaller.

INSERT INTO results (compound, assigned_class) VALUES
  ('COc1ccc(S(=O)(=O)N(CC(C)C)CC(O)C(Cc2ccc(NC3Cc4cccc(-c5sc6c(c5C(=O)O)CC(C)(C)CC6)c4C3)cc2)NC(=O)OC2COC3(C)OCCC23)cc1 (centres unmarked) [Compound I-241]', 'not met'),
  ('COc1ccc(S(=O)(=O)N(CC(C)C)CC(O)C(Cc2ccc(NC(C)c3ccccc3-c3sc4c(c3C(=O)O)CC(C)(C)CC4)cc2)NC(=O)OC2COC3(C)OCCC23)cc1 (centres unmarked) [Compound I-603]', 'met'),
  ('COc1ccc(S(=O)(=O)N(CC(C)C)C[C@@H](O)[C@H](Cc2ccc(NCc3ccccc3C(=O)Nc3sc4c(c3C(=O)O)CC(C)(C)CC4)cc2)NC(=O)O[C@H]2CO[C@@]3(C)OCC[C@@H]23)cc1 [Compound I-396]', 'not met'),
  ('COc1ccc(S(=O)(=O)N(CC(C)C)CC(O)C(Cc2ccc(NCc3cc(N4CCC4)ccc3-c3sc4c(c3C(=O)O)CC(C)(C)CC4)cc2)NC(=O)OC2COC3(C)OCCC23)cc1 (centres unmarked) [Compound I-693]', 'not met'),
  ('COc1ccc(S(=O)(=O)N(CC(C)C)CC(O)C(Cc2ccc(N(C)CCCc3ccccc3-c3sc4c(c3C(=O)O)CC(C)(C)CC4)cc2)NC(=O)OC2COC3(C)OCCC23)cc1 (centres unmarked) [Compound I-240]', 'met');

###

study_target: HIV-1 PR (Human immunodeficiency virus type 1 group M subtype B, UniProt P04585)
procedure_details: HIV-protease inhibitory activity assay (FRET peptide substrate)
measurement_conditions: Test Example 1
pIC50: −log10 of the molar value.
measurement_kind: pIC50

INSERT INTO results (molecule, assay_value) VALUES
  ('COc1ccc(S(=O)(=O)N(CC(C)C)CC(O)C(Cc2ccc(NCc3cc4ccccc4c(-c4sc5c(c4C(=O)O)CC(C)(C)CC5)n3)cc2)NC(=O)OC2COC3(C)OCCC23)cc1 (centres unmarked)', 8.58),
  ('COc1ccc(S(=O)(=O)N(CC(C)C)CC(O)C(Cc2ccc(NCc3ccccc3-c3c(C(=O)O)[nH]c4cc(OC)ccc34)cc2)NC(=O)OC2COC3(C)OCCC23)cc1 (centres unmarked)', 8.65),
  ('COC(=O)NC(C(=O)NC(Cc1ccc(-c2sc3c(c2C(=O)O)CC(C)(C)CC3)cc1)C(O)CC(Cc1ccccc1F)C(=O)NC1c2cc(F)cc(Cl)c2OCC1O)C(C)(C)C (centres unmarked)', 8.65),
  ('COc1ccc(S(=O)(=O)N(CC(C)C)CC(O)C(Cc2ccc(OCCN(C)c3ccc(C#N)cc3-c3sc4c(c3C(=O)O)CC(C)(C)CC4)cc2)NC(=O)OC2COC3(C)OCCC23)cc1 (centres unmarked)', 8.30),
  ('COc1ccc(S(=O)(=O)N(CC(C)C)CC(O)C(Cc2ccc(N(C)CCOc3ccccc3-c3sc4c(c3C(=O)O)CC(C)(C)CC4)cc2)NC(=O)OC2COC3(C)OCCC23)cc1 (centres unmarked)', 8.59);
